- Target Or Test System: canine TRPM8 (Canis lupus familiaris)
- Construct: expressed in transfected cells
- Sequence (Q1A7N1 1-1104): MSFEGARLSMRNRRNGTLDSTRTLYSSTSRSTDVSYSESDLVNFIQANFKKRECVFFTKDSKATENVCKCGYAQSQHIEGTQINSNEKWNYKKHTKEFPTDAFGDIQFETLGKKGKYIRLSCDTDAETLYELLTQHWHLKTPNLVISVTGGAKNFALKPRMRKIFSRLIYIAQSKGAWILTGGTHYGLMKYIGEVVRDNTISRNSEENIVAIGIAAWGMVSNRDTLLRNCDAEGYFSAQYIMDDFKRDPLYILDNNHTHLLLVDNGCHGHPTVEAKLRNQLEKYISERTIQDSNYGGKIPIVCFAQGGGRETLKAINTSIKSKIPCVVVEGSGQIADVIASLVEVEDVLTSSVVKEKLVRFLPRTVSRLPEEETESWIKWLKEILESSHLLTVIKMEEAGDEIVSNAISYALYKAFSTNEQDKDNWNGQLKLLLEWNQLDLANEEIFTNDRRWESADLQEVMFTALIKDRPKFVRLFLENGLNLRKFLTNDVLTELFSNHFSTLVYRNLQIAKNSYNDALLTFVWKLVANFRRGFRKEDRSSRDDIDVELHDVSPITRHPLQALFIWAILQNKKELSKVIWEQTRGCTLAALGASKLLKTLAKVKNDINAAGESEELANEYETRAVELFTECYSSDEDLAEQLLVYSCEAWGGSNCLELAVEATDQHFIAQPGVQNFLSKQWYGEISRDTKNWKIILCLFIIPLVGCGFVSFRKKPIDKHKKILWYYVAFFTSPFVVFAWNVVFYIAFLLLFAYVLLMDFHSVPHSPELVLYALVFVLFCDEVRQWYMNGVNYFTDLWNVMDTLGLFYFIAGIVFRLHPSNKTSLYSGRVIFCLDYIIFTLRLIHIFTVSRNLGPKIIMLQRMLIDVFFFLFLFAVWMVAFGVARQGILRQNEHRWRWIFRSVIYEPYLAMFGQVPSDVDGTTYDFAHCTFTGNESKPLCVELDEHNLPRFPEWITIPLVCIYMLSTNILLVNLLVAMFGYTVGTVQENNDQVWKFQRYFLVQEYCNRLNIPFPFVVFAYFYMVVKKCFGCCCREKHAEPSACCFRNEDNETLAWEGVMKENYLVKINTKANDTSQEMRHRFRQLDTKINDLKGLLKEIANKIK
- Assay Info: In vitro canine TRPM8 functional assay (Ca2+-sensitive fluorescent dye, FLIPR or FDSS, icilin challenge)
- Format: cell-based
- Assay Conditions: 0.2 μM compound; HEK293 cells stably expressing canine TRPM8; icilin challenge
Property Label: inhibition at 0.2 µM (%)

INSERT INTO results (molecule_smiles, target_or_test_system, property_label, measure_unit, observed_result) VALUES
  ('Cc1c(N(Cc2ccc(F)c(F)c2)S(=O)(=O)CCN(CC(C)C)CC(C)C)sc2ccccc12', 'canine TRPM8 (Canis lupus familiaris)', 'inhibition at 0.2 µM', '%', 100),
  ('CCCN(CCC)CCS(=O)(=O)N(Cc1ccc(OC(F)(F)F)cc1)c1sc2ccccc2c1C', 'canine TRPM8 (Canis lupus familiaris)', 'inhibition at 0.2 µM', '%', 99),
  ('Cc1c(N(Cc2ccc(OC(F)(F)F)cc2)S(=O)(=O)CCNCC(C)C)sc2ccccc12', 'canine TRPM8 (Canis lupus familiaris)', 'inhibition at 0.2 µM', '%', 19),
  ('Cc1c(N(Cc2ccc(OC(F)(F)F)cc2)S(=O)(=O)CCN2CCNC(=O)CC2)sc2ccccc12', 'canine TRPM8 (Canis lupus familiaris)', 'inhibition at 0.2 µM', '%', 99),
  ('O=S(=O)(CCN1CCc2ccccc2C1)N(Cc1ccc(OC(F)(F)F)cc1)c1ccc2ccccc2c1', 'canine TRPM8 (Canis lupus familiaris)', 'inhibition at 0.2 µM', '%', 86),
  ('CC(=O)N1CCN(CCS(=O)(=O)N(Cc2ccc(OC(F)(F)F)cc2)c2ccc3ccccc3c2)CC1', 'canine TRPM8 (Canis lupus familiaris)', 'inhibition at 0.2 µM', '%', 67),
  ('CCCN(CCS(=O)(=O)N(CCCCC(F)(F)F)c1sc2ccccc2c1C)CC(C)C', 'canine TRPM8 (Canis lupus familiaris)', 'inhibition at 0.2 µM', '%', 99),
  ('CCCN(CCC)CCS(=O)(=O)N(Cc1ccc(OC(F)(F)F)cc1)c1sc2ccccc2c1Cl', 'canine TRPM8 (Canis lupus familiaris)', 'inhibition at 0.2 µM', '%', 98),
  ('Cc1c(N(Cc2ccc(OC(F)(F)F)cc2)S(=O)(=O)CCNCCC(F)(F)F)sc2ccccc12', 'canine TRPM8 (Canis lupus familiaris)', 'inhibition at 0.2 µM', '%', 72),
  ('CCCCN(C)CCS(=O)(=O)N(Cc1ccc(OC(F)(F)F)cc1)c1sc2ccccc2c1C', 'canine TRPM8 (Canis lupus familiaris)', 'inhibition at 0.2 µM', '%', 96),
  ('CCN(CCS(=O)(=O)N(Cc1ccc(OC(F)(F)F)cc1)c1sc2ccccc2c1C)CC(C)C', 'canine TRPM8 (Canis lupus familiaris)', 'inhibition at 0.2 µM', '%', 99),
  ('Cc1c(N(Cc2ccc(OC(F)(F)F)cc2)S(=O)(=O)CCN2[C@H](C)CCC[C@@H]2C)sc2ccccc12', 'canine TRPM8 (Canis lupus familiaris)', 'inhibition at 0.2 µM', '%', 99),
  ('CCC(=O)N(CCS(=O)(=O)N(CCC1CC1)c1sc2ccccc2c1C)CC(C)C', 'canine TRPM8 (Canis lupus familiaris)', 'inhibition at 0.2 µM', '%', 100);
